B1: FAM189A2 (parent)
chain: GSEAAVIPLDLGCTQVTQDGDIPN

- Variants of: B1
- experiment-notes: protein stability index of a GFP-peptide fusion (GPS, HEK-293T) (PSI 1-6); higher = more stable;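 also: lentivirally expressed fusions sorted by FACS into six bins by GFP to DsRed ratio, PSI derived from sequencing read proportions per bin multiplied by bin number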
- assay-context: c terminus: a fixed tail appended
The variants listed here are annotated with their protein stability index.
endpoint-label: protein stability index

[[record]]
mutation_string = "I22P"
test_result = 5.37

[[record]]
mutation_string = "S2I"
test_result = 5.23

[[record]]
mutation_string = "Q15E"
test_result = 5.77

[[record]]
mutation_string = "Q18L"
test_result = 5.25

[[record]]
mutation_string = "G20A"
test_result = 5.24

[[record]]
mutation_string = "C13T"
test_result = 5.48

[[record]]
mutation_string = "D19I"
test_result = 4.3

[[record]]
mutation_string = "G20W"
test_result = 4.73

[[record]]
mutation_string = "V16H"
test_result = 5.22

[[record]]
mutation_string = "D10A"
test_result = 5.39

[[record]]
mutation_string = "G20S"
test_result = 5.32

[[record]]
mutation_string = "L9D"
test_result = 5.48

[[record]]
mutation_string = "G12Y"
test_result = 5.05

[[record]]
mutation_string = "N24F"
test_result = 4.53

[[record]]
mutation_string = "A5G"
test_result = 5.36

[[record]]
mutation_string = "P8Q"
test_result = 4.22

[[record]]
mutation_string = "P8H"
test_result = 4.74

[[record]]
mutation_string = "G12V"
test_result = 5.16

[[record]]
mutation_string = "V6L"
test_result = 5.16

[[record]]
mutation_string = "N24I"
test_result = 4.51

[[record]]
mutation_string = "D19P"
test_result = 5.06

[[record]]
mutation_string = "V16M"
test_result = 4.6

